Molecular target: T1, recombinant human Tie2 extracellular domain (human, UniProt Q02763 23-748)
T1 construct: whole entry named; also called Recombinant human Tie2 ECD; hu Tie2
T1 sequence (Q02763 23-748 limits assumed): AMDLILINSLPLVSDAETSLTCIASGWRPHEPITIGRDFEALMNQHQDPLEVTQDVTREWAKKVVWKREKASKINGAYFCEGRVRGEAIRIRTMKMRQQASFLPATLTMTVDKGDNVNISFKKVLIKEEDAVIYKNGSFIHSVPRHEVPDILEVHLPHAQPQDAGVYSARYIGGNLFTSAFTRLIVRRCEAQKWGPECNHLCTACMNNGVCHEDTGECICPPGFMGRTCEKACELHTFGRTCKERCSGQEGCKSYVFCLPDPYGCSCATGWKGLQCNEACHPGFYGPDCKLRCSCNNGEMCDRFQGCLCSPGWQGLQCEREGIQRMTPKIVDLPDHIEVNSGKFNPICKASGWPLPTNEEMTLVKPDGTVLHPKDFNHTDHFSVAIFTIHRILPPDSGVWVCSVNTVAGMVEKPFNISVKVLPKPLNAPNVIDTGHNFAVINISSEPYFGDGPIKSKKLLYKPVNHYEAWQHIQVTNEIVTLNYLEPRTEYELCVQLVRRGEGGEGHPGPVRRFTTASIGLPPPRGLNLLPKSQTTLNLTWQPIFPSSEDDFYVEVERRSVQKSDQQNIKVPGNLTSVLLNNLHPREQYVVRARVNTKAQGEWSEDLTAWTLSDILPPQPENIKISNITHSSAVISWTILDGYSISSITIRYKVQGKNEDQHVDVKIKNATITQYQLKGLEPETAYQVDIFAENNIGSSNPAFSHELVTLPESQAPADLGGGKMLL
Assay: SPR, IgG captured, 37C
reported.metric: Normalized Binding Signal, 300 nM
Respond using a number only.

Some entries whose results are on file:
INSERT INTO assay_data (binder, test_result) VALUES
  ('Tie2.1.M100cV (antibody, IgG1, name in Kabat numbering, V domains shown, hIgG1) VH: EVQLVESGGGLVQPGGSLRLSCAASGFTFSNTDISWVRQAPGKGLEWVGRISPSDGNTYYADSVKGRFTISADTSKNTAYLQMNSLRAEDTAVYYCARRTRWASWAVDYWGQGTLVTVSS VL: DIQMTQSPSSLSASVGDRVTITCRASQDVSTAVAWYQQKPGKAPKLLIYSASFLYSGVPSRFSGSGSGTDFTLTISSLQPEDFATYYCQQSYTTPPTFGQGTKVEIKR', 0.04),
  ('Tie2.1.M100cW (antibody, IgG1, name in Kabat numbering, V domains shown, hIgG1) VH: EVQLVESGGGLVQPGGSLRLSCAASGFTFSNTDISWVRQAPGKGLEWVGRISPSDGNTYYADSVKGRFTISADTSKNTAYLQMNSLRAEDTAVYYCARRTRWASWAWDYWGQGTLVTVSS VL: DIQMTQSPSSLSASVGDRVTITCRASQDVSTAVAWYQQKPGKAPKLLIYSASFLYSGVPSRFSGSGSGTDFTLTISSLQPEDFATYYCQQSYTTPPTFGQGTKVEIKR', 0.08),
  ('Tie2.1.M100cT (antibody, IgG1, name in Kabat numbering, V domains shown, hIgG1) VH: EVQLVESGGGLVQPGGSLRLSCAASGFTFSNTDISWVRQAPGKGLEWVGRISPSDGNTYYADSVKGRFTISADTSKNTAYLQMNSLRAEDTAVYYCARRTRWASWATDYWGQGTLVTVSS VL: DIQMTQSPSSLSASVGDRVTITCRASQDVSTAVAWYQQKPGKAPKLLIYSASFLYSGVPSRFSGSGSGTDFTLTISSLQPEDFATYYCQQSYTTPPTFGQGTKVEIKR', 0.02),
  ('Tie2.1.M100cA (antibody, IgG1, name in Kabat numbering, V domains shown, hIgG1) VH: EVQLVESGGGLVQPGGSLRLSCAASGFTFSNTDISWVRQAPGKGLEWVGRISPSDGNTYYADSVKGRFTISADTSKNTAYLQMNSLRAEDTAVYYCARRTRWASWAADYWGQGTLVTVSS VL: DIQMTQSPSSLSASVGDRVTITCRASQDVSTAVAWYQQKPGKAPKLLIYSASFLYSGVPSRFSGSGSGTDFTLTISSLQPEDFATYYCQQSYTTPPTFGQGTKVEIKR', 0.03);

Now for another entry.
The recorded Normalized Binding Signal, 300 nM for entry Tie2.1.M100cK (antibody, IgG1, name in Kabat numbering, V domains shown, hIgG1) VH: EVQLVESGGGLVQPGGSLRLSCAASGFTFSNTDISWVRQAPGKGLEWVGRISPSDGNTYYADSVKGRFTISADTSKNTAYLQMNSLRAEDTAVYYCARRTRWASWAKDYWGQGTLVTVSS VL: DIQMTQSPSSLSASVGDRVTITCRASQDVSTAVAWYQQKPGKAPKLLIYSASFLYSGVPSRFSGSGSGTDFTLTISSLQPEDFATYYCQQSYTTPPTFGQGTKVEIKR equals 0.13
